Origin of values: patent US9556183B2

- Test system: Rice plants
- Assay Overview: Paddy herbicidal activity test, phytotoxicity to transplanted rice
- Format: in vivo
- Measurement Conditions: 5g a.i./10a; rice transplanted at 2.0 leaf stage; 30 days
Property Measured: phytotoxicity (growth inhibition rate level) Rice plants

Known phytotoxicity (growth inhibition rate level) Rice plants results, listed for orientation:
Query string: Give the measured phytotoxicity (growth inhibition rate level) Rice plants of N#Cc1cnn(-c2nn3c(c2Cl)CCCC3)c1NC1CC1 [Control agent 4.84, reference compound] .
Result string: 2 (2: 20% to less than 30%)

Query string: Please look up its phytotoxicity (growth inhibition rate level) Rice plants: N#Cc1cnn(-c2nn3c(c2Cl)CCCC3)c1NCC1CC1 [Compound 1]
Result string: 1 (1: 10% to less than 20%)

Query string: Item N#Cc1cnn(-c2nn3c(c2Cl)CCCC3)c1NCC1CC1(F)F (stereo not shown) [Compound 185] has what recorded phytotoxicity (growth inhibition rate level) Rice plants?
Result string: 1 (1: 10% to less than 20%)

Query string: Item N#Cc1cnn(-c2nn3c(c2Cl)CCCC3)c1NCC1CO1 (stereo not shown) [Control agent 4.129, reference compound] has what recorded phytotoxicity (growth inhibition rate level) Rice plants?
Result string: 2 (2: 20% to less than 30%)

Query string: Item N#Cc1cnn(-c2nn3c(c2Cl)CCCC3)c1N(CC1CC1)C(=O)C(F)(F)F [Compound 2] has what recorded phytotoxicity (growth inhibition rate level) Rice plants?
Result string: 1 (1: 10% to less than 20%)

Query string: Using the record for N#Cc1cnn(-c2nn3c(c2Cl)CCCC3)c1NC(C1CC1)C1CC1 [Compound 10] , report its phytotoxicity (growth inhibition rate level) Rice plants.
Result string: 1 (1: 10% to less than 20%)

New cases:
Query string: Sample O=C(N(CC1CC1)c1c([N+](=O)[O-])cnn1-c1nn2c(c1Cl)CCCC2)C(F)(F)F [Compound 115] — what was its phytotoxicity (growth inhibition rate level) Rice plants?
Result string: 1 (1: 10% to less than 20%)

Query string: Which value of phytotoxicity (growth inhibition rate level) Rice plants has been reported for CC1CC1CNc1c(C#N)cnn1-c1nn2c(c1Cl)CCCC2 (stereo not shown) [Compound 12] in the records?
Result string: 1 (1: 10% to less than 20%)

Query string: Record request: phytotoxicity (growth inhibition rate level) Rice plants value, item N#Cc1cnn(-c2nn3c(c2Cl)CCCC3)c1N(CC1CC1(F)F)C(=O)C(F)(F)F (stereo not shown) [Compound 186]
Result string: 1 (1: 10% to less than 20%)

Query string: // returns reported phytotoxicity (growth inhibition rate level) Rice plants for input CC1CC1CN(C(=O)C(F)(F)F)c1c(C#N)cnn1-c1nn2c(c1Cl)CCCC2 (stereo not shown) [Compound 13]
Result string: 1 (1: 10% to less than 20%)
